Tested on: Septoria tritici
Test: Fungicidal activity against Septoria tritici, micro titer plate (MTP) test
Type: cell-based
Conditions: Zymoseptoria tritici, 168 h; Table V.4; component B alone, 0.25 ppm; read-out: Observed efficacy
Use 30% as the dividing line for inhibition of growth at […], with the line itself on the y side and lower values as n.

CC(C)CC(C)c1sccc1NC(=O)c1cn(C)nc1C(F)(F)F (centres unmarked) | n
CCN(C)C=Nc1cc(Br)c(OC2CCC(C(C)C)CC2)nc1C (centres unmarked) | n
O=C1C2CC=CCC2C(=O)N1SC(Cl)(Cl)Cl (centres unmarked) | n
CC1CC(C)(C)c2c(F)ccc(NC(=O)c3cn(C)nc3C(F)F)c21 (centres unmarked) | n
CO/N=C(/C1=NOCCO1)c1ccccc1Oc1ncnc(Oc2ccccc2Cl)c1F | y

====

Item-by-item account of inhibition of growth at […]
Tested on: Colletotrichum orbiculare
Test: Fungicidal activity against Colletotrichum orbiculare in the microtiterplate test
Format: cell-based
Conditions: Colletotrichum orbiculare; 0.25 ppm; read-out: Observed efficacy
readout.name: inhibition of growth at […]

O=C(Nc1ccccc1F)c1ccc(-c2noc(C(F)(F)F)n2)cc1 | 4%
Cn1nc(C(F)F)c(C(=O)Nc2ccccc2Oc2ccc(C(F)(F)F)cc2Cl)c1F | 4%
Cc1nn(C)cc1C(=O)Nc1cccc2c1C(C)CC2(C)C (centres unmarked) | 3%
O=C(NCCc1ncc(C(F)(F)F)cc1Cl)c1ccccc1C(F)(F)F | 15%
O=C1C2CC=CCC2C(=O)N1SC(Cl)(Cl)Cl (centres unmarked) | 21%

====

Item-by-item account of inhibition of growth at 4 ppm
Test system: Septoria tritici
Experiment: Fungicidal activity against Septoria tritici, micro titer plate (MTP) test
Format: cell-based
Settings: Zymoseptoria tritici, 168 h; Table V.4; component B alone, 4 ppm; read-out: Observed efficacy
readout.name: inhibition of growth at 4 ppm (%)

CCN(C)C=Nc1cc(Br)c(OC2Cc3ccccc3C2)nc1C | 0
COc1ccc(C(=CC(=O)N2CCOCC2)c2ccc(Cl)cc2)cc1OC | 11
Cc1ccc(-c2c(Cl)nc(C#N)n2S(=O)(=O)N(C)C)cc1 | 2
CCN(C)C=Nc1cc(Br)c(OC(C)c2cc(F)cc(F)c2)nc1C (stereo not shown) | 62

====

Item-by-item account of inhibition of growth at 1 ppm
Test system: Pyricularia oryzae
Assay: microbe, parasite or virus in culture
Assay type: cell-based
Conditions: Pyricularia oryzae, 168 h, read-out: Observed efficacy
readout.name: inhibition of growth at 1 ppm (%)

CNC(=O)/C(=N/OC)c1ccccc1Oc1ccccc1 | 59
COc1ccc(C(=CC(=O)N2CCOCC2)c2ccc(Cl)cc2)cc1OC | 4
O=C1C2CC=CCC2C(=O)N1SC(Cl)(Cl)Cl (stereo not shown) | 53
O=C(Nc1ccccc1F)c1ccc(-c2noc(C(F)(F)F)n2)cc1 | 5
